# system.tested: T1, human apical domain of CD71 (human, UniProt P02786 189-383, limits assumed)
# T1 construct: domain: apical domain
# assay.summary: primary ELISA; further: test concentration or dose not given here
experimental.endpoint: RLU (RLU)

(I) CD71-binding FN3 domain SEQ ID NO 410 (designed binder) MLPAPKNLVVSRVTEDSARLSWTAPDAAFDSFFIGYLEPQPPGEAIALWVPGSERSYDLTGLKPGTEYNVTIQGVKGGFPSQPLHAHFTT
(II) CD71-binding FN3 domain SEQ ID NO 407 (designed binder) MLPAPKNLVVSRVTEDSARLSWTAPDAAFDSFEIAYFETCRTGEAIVLTVPGSERSYDLTGLKPGTEYRVWIGGVKGGVWSRPLSAIFTT
(III) CD71-binding FN3 domain SEQ ID NO 445 (designed binder) MLPAPKNLVVSRVTEDSARLSWTAPDAAFDSFFIGYLEPQPPGEAIHLFVPGSERSYDLTGLKPGTEYNVTIQGVKGGFPSDPLVASFTT
Order the entries above from lowest to highest RLU. Please write the labels in the order that was asked for.
I, II, III
(I: 3.2e+06 RLU, II: 4.64e+06 RLU, III: 6.73e+06 RLU)

(A) CD71-binding FN3 domain SEQ ID NO 427 (designed binder) MLPAPKNLVVSRVTEDSARLSWTAPDAAFDSFFIGYLEPQPPGEAIHLRVPGSERSYDLTGLKPGTEYNVTIQGVKGGFPSDPLIAVFTT
(B) CD71-binding FN3 domain SEQ ID NO 389 (designed binder) MLPAPKNLVVSRVTEDSARLSWTAPDAAFDSFFIGYLEPQPPGEAIHLLVPGSERSYDLTGLKPGTEYNVTIQGVKGGFPSMPLSAIVTT
Problem: Given the entries A and B , determine which has the lower reported RLU. Please reply using the label of the selected record.
A
(A: 3.52e+06 RLU, B: 6.19e+06 RLU)

Values were extracted from patent US20260151494A1.
